system: greenhouse red spider mite (Tetranychus urticae); assay: Tetranychus urticae spray test, OP-resistant (TETRUR), bean leaf disks; format: in vivo; conditions: Tetranychus urticae, foliar, 144 h, application rate 500 g/ha, after 6 days; read-out: efficacy (spider mites killed)
Collected pest or weed control at 500 g/ha values appear next to each entry.

COMPOUND: Cc1cc(C)c(SCC(F)(F)F)cc1/N=C(\NCC(F)(F)F)C1CCCC1 [Ia-241]
UNIT_NAME: %
pest or weed control at 500 g/ha: 90

COMPOUND: CN/C(=N\c1cc(SCC(F)(F)F)c(C)cc1F)c1ccc(Cl)cc1 [Ia-60]
UNIT_NAME: %
pest or weed control at 500 g/ha: 100

COMPOUND: CN/C(=N\c1cc([S+]([O-])CC(F)(F)F)c(Cl)cc1Cl)c1ccccn1 (stereo not shown) [Ib-109]
UNIT_NAME: %
pest or weed control at 500 g/ha: 100

COMPOUND: Cc1cc(F)c(/N=C(\N)C2CC2(F)Cl)cc1SCC(F)(F)F (stereo not shown) [Ia-67]
UNIT_NAME: %
pest or weed control at 500 g/ha: 100

COMPOUND: CN/C(=N\c1cc(SCC(F)(F)F)c(C)cc1F)c1ccccn1 [Ia-72]
UNIT_NAME: %
pest or weed control at 500 g/ha: 100

COMPOUND: O=C1CS/C(=N\c2cc([S+]([O-])CC(F)(F)F)ccc2F)N1CC(F)(F)F (stereo not shown) [Ib-117]
UNIT_NAME: %
pest or weed control at 500 g/ha: 100

COMPOUND: FC(F)CN/C(=N\c1cc(SCC(F)(F)F)c(Cl)cc1Cl)C1CC1 [Ia-253]
UNIT_NAME: %
pest or weed control at 500 g/ha: 90

COMPOUND: CCN(C)/C(=N/c1cc([S+]([O-])CC(F)(F)F)c(C)cc1F)C(F)(F)F (stereo not shown) [Ib-23]
UNIT_NAME: %
pest or weed control at 500 g/ha: 90

COMPOUND: CN/C(=N/c1cc([S+]([O-])CC(F)(F)F)c(Cl)cc1Cl)C(F)(F)F (stereo not shown) [Ib-21]
UNIT_NAME: %
pest or weed control at 500 g/ha: 100

COMPOUND: CN/C(=N/c1cc(SCC(F)(F)F)c(Cl)cc1F)C(F)(F)F [Ia-52]
UNIT_NAME: %
pest or weed control at 500 g/ha: 100

COMPOUND: Cc1cc(F)c(/N=C(/N(C)C)C(F)(F)F)cc1[S+]([O-])CC(F)(F)F (stereo not shown) [Ib-01]
UNIT_NAME: %
pest or weed control at 500 g/ha: 90

COMPOUND: [O-][S+](CC(F)(F)F)c1cc(/N=C(\NCC(F)(F)F)C2CCC2)c(Cl)cc1Cl (stereo not shown) [Ib-167]
UNIT_NAME: %
pest or weed control at 500 g/ha: 90

COMPOUND: Cc1cc(Cl)c(/N=C(\N)C(F)(F)C(F)(F)Cl)cc1SCC(F)(F)F [Ia-30]
UNIT_NAME: %
pest or weed control at 500 g/ha: 100

COMPOUND: N/C(=N\c1cc(SCC(F)(F)F)c(Cl)cc1Cl)C1(Cl)CC1 [Ia-123]
UNIT_NAME: %
pest or weed control at 500 g/ha: 100

COMPOUND: CN(C)/C(=N\c1cc(SCC(F)(F)F)c(Cl)cc1Cl)c1ccccc1 [Ia-205]
UNIT_NAME: %
pest or weed control at 500 g/ha: 100

COMPOUND: CCN(CC)/C(=N/c1cc(SCC(F)(F)F)c(C)cc1F)C(F)(F)F [Ia-51]
UNIT_NAME: %
pest or weed control at 500 g/ha: 100

COMPOUND: Cc1cc(C)c([S+]([O-])CC(F)(F)F)cc1/N=C(/c1ccccc1)N(C)C (stereo not shown) [Ib-126]
UNIT_NAME: %
pest or weed control at 500 g/ha: 100

COMPOUND: Cc1cc(F)c(/N=C(\c2cccs2)N(C)C)cc1[S+]([O-])CC(F)(F)F (stereo not shown) [Ib-81]
UNIT_NAME: %
pest or weed control at 500 g/ha: 100

COMPOUND: Cc1cc(F)c(/N=C(\N)C(F)(F)C(F)(F)F)cc1[S+]([O-])CC(F)(F)F (stereo not shown) [Ib-42]
UNIT_NAME: %
pest or weed control at 500 g/ha: 100
